Test system: hepatocytes
Experiment: RNA-seq of hepatocytes treated with Phase III failure compounds
Conditions: gene G6PC; hepatocytes
test-readout: RNA-seq results: G6PC expression

smiles-text	test-readout	endpoint-result
C=CCNC1=C2C[C@@H](C)C[C@H](OC)[C@H](O)[C@@H](C)/C=C(\C)[C@H](OC(N)=O)[C@@H](OC)/C=C\C=C(/C)C(=O)NC(=CC1=O)C2=O	RNA-seq results: G6PC expression	−0.03
NC(=O)c1ccc(I)c([N+](=O)[O-])c1	RNA-seq results: G6PC expression	0.12
COc1cc(Nc2ncc(F)c(Nc3ccc4c(n3)N(COP(=O)(O)O)C(=O)C(C)(C)O4)n2)cc(OC)c1OC	RNA-seq results: G6PC expression	−0.55
